test: chemical genetic growth profiling, strain panel (AID 1159580);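 also: tested at 20 µM; growth read once vehicle control cultures reached saturation at 30 °C; 1 = growth at the plate median or of vehicle wells; lower values mean less growth of the strain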; details: S. cerevisiae deletion strains, growth OD, locus YMR125W, strain sto1, active compounds read low
Screen size: about 5,500 compounds; about 2,000 (36%) were called active. Inconclusive results (about 18%) are left out. Some of the results follow.
Below, each entry is listed alongside its reported normalized growth.
Format: numeric value only, no unit, no commentary.

Below, each entry is followed by its recorded normalized growth result.
# compound, result_value
measured = [
    ("COc1ccc(-c2coc3cc(OC)cc(OC)c3c2=O)cc1", 1.01),
    ("C=C1C(=O)OC2CC1C(OC(C)=O)C/C(C)=C/CC/C(C)=C/CC[C@]2(C)O (stereo partly specified)", 0.973),
    ("COc1cc(OC)c2c(=O)c(-c3ccccc3)coc2c1", 0.971),
    ("NC(CO)C(=O)NNCc1ccc(O)c(O)c1O (stereo unspecified)", 1.01),
    ("CC(C)COCC(CN(Cc1ccccc1)c1ccccc1)N1CCCC1 (stereo unspecified)", 1.03),
]

Here is another compound to look at.
// query Would you kindly share the measured normalized growth for COC(=O)C1=CCCN(C)C1 ?
// result 1.02

====

Below, each entry is listed alongside its reported normalized growth.
assay: chemical genetic growth profiling, strain panel (AID 1159580);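 also: tested at 20 µM; growth read once vehicle control cultures reached saturation at 30 °C; 1 = growth at the plate median or of vehicle wells; lower values mean less growth of the strain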; details: S. cerevisiae deletion strains, growth OD, locus YLR371W, strain rom2, active compounds read low
Screen size: about 5,500 compounds; about 2,000 (36%) were called active. Inconclusive results (about 18%) are left out. Some of the results follow.
Format: numeric value only, no unit, no commentary.

# compound, normalized growth
data = [
    ("CC[N+](CC)(CC)CCOc1cccc(OCC[N+](CC)(CC)CC)c1OCC[N+](CC)(CC)CC", 1.01),
]

// query Would you kindly share the measured normalized growth for O=C1OC(c2ccc(O)cc2)(c2ccc(O)cc2)c2ccccc21 ?
// result 0.948

// query Would you kindly share the measured normalized growth for O=C(Cn1ccnc1[N+](=O)[O-])NCCO ?
// result 1.01

// query Would you kindly share the measured normalized growth for Nc1nc2ncc(=O)[nH]c2c(=O)[nH]1 ?
// result 0.976

// query Would you kindly share the measured normalized growth for Nc1ccn(C2O[C@H](CO)[C@@H](O)[C@@H]2O)c(=O)n1 (stereo partly specified) ?
// result 0.995

// query Would you kindly share the measured normalized growth for C=C1C(=O)O[C@@H]2C3O[C@]3(C)CC/C=C(\C)CC[C@@H]12 (stereo partly specified) ?
// result 0.791

====

assay: chemical genetic growth profiling, strain panel (AID 1159580);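 also: tested at 20 µM; growth read once vehicle control cultures reached saturation at 30 °C; 1 = growth at the plate median or of vehicle wells; lower values mean less growth of the strain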; conditions: S. cerevisiae deletion strains, growth OD, locus YER015W, strain faa2, active compounds read low
The whole screen tested about 5,500 compounds, of which about 2,000 (36%) were called active. Another 18% or so got no clear call; they are omitted. The list shows a part of the results.
observed_property: normalized growth
Format: numeric value only, no unit, no commentary.

Below, each entry is followed by its recorded normalized growth result.
# molecule, normalized growth
records = [
    ("CC1(C)NC(=O)N(c2ccc([N+](=O)[O-])c(C(F)(F)F)c2)C1=O", 0.971),
    ("COC(=O)C(O)c1ccccc1 (stereo not given)", 1.01),
    ("O=C1C=C2C=C[C@@H]3C[C@@]2(O1)[C@H]1CCCCN31", 1.01),
    ("CCCCNc1ccc(C(=O)OCCN(C)C)cc1", 1.01),
    ("Cc1cccc(Nc2ccccc2C(=O)O)c1C", 0.936),
]

// query Would you kindly share the measured normalized growth for CC1(C)O[C@H]2[C@H](O)C[C@](O)(C(N)=O)C[C@H]2O1 ?
// result 1.02

// query Would you kindly share the measured normalized growth for O=C1NC(=O)C(=O)C(=O)N1 ?
// result 0.992

// query Would you kindly share the measured normalized growth for CCCC(=O)O[C@]1(C(=O)CO)CCC2[C@@H]3CCC4=CC(=O)CC[C@]4(C)C3[C@@H](O)C[C@@]21C (stereo not given in full) ?
// result 1.01

// query Would you kindly share the measured normalized growth for Cc1ccc(C)c(OCCCC(C)(C)C(=O)O)c1 ?
// result 1.01

// query Would you kindly share the measured normalized growth for CCCCN(CCCC)CCCOC(=O)c1ccc(N)cc1 ?
// result 0.991

// query Would you kindly share the measured normalized growth for O=S1OCC2C(CO1)C1(Cl)C(Cl)=C(Cl)C2(Cl)C1(Cl)Cl (stereo not given) ?
// result 0.993

// query Would you kindly share the measured normalized growth for CCCCC(=O)Oc1ccccc1C(=O)O ?
// result 0.991

// query Would you kindly share the measured normalized growth for CCN(CC)CCOC(=O)c1ccc(N)cc1 ?
// result 1

// query Would you kindly share the measured normalized growth for CC(C)NNC(=O)c1ccncc1 ?
// result 1.02

// query Would you kindly share the measured normalized growth for CC(C)C(=O)Nc1ccc([N+](=O)[O-])c(C(F)(F)F)c1 ?
// result 1.02

// query Would you kindly share the measured normalized growth for C=C1C(=O)O[C@@H]2C[C@@]3(C)CCC[C@H](C)C3=C[C@H]12 ?
// result 0.855

// query Would you kindly share the measured normalized growth for CC(=O)N[C@@H](CS)C(=O)O ?
// result 1

// query Would you kindly share the measured normalized growth for CC1C[C@H]2CC(=O)[C@H]3CCCN4CCC[C@H]2[C@]34C1 (stereo not given in full) ?
// result 1.02

// query Would you kindly share the measured normalized growth for COC(=O)[C@@H]1OC(=O)[C@H]2O[C@@]23[C@@]1(C)CCC1[C@@]2(C)CCC(=O)C(C)(C)C2C[C@@H](OC(C)=O)[C@]13C (stereo not given in full) ?
// result 0.98

// query Would you kindly share the measured normalized growth for Nc1nc2ncc(=O)[nH]c2c(=O)[nH]1 ?
// result 1
